- target_or_test_system: T1, human collagen type I, acid soluble, extracted from placenta (Sigma C7774) (human, UniProt P02452 162-1218; P08123 80-1119)
- T1 construct: tissue extract, gelled and dried in wells; also called dried human collagen; h-Collagen
- T1 sequence (P02452 162-1218 limits assumed, chain 1 of 2): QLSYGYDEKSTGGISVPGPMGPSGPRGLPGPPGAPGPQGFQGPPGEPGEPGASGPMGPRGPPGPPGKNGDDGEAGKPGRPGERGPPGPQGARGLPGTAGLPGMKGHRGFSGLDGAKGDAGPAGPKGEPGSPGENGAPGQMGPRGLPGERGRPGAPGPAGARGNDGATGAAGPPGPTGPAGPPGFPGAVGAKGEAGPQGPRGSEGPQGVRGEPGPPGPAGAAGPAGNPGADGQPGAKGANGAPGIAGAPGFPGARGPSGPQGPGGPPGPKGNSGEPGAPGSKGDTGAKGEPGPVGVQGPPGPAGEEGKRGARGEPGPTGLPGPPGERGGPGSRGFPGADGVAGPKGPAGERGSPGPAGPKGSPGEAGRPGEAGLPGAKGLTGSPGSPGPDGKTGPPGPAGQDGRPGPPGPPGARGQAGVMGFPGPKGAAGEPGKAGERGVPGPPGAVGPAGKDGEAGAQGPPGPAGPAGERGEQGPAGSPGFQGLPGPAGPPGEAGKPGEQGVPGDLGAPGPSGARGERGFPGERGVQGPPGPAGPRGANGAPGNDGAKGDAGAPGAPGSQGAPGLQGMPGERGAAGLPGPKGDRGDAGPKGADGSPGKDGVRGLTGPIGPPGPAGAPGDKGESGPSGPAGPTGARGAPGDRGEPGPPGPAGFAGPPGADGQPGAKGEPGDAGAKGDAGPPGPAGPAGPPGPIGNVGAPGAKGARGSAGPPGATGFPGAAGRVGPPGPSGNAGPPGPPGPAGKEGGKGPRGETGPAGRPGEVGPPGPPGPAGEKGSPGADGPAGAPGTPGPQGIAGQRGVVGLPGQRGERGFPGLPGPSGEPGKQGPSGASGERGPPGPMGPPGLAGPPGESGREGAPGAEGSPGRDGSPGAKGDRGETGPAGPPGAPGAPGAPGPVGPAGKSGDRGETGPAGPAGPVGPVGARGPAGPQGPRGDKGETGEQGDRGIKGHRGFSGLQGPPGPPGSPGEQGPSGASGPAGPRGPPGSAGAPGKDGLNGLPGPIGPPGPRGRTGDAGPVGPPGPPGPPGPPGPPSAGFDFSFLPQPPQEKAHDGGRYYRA
- T1 sequence (P08123 80-1119 limits assumed, chain 2 of 2): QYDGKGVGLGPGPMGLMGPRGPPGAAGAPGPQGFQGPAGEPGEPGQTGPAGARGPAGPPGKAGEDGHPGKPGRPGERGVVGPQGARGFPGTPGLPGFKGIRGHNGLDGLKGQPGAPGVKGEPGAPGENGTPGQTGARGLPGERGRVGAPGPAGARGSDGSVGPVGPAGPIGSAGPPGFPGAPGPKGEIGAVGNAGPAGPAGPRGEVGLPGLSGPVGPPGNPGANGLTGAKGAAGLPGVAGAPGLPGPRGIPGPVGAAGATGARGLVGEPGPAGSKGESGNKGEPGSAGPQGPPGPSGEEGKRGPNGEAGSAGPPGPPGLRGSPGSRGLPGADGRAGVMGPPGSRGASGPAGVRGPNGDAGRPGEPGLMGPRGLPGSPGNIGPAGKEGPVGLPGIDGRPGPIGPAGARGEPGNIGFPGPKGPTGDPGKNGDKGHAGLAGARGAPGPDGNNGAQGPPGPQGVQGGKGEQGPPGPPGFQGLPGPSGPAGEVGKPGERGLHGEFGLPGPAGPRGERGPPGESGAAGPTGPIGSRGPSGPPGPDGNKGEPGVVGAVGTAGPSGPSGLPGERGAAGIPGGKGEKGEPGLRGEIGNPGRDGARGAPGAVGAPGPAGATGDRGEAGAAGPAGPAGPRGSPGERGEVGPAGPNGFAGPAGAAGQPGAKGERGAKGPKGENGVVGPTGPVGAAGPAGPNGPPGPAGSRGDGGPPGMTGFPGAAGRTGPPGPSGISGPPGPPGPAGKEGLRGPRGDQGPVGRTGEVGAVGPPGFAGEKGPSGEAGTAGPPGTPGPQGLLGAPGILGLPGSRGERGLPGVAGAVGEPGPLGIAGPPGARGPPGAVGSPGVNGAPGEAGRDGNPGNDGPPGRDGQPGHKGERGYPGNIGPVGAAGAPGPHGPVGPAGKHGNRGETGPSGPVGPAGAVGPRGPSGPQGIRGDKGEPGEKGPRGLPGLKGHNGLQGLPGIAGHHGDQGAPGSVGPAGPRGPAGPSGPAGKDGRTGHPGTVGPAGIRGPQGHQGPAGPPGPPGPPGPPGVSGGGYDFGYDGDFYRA
- experiment_notes: dried collagen assay
Bridge positions count the residues as written; N and C are the ends. Square brackets hold non-standard residues; d marks the D form. Primed or numbered codes have the meaning given here. Side chains are listed from the residue outwards. Ends that are not written are not given here. Bip = N[C@@H](Cc1ccc(-c2ccccc2)cc1)C(=O)O; 2Nal = N[C@@H](Cc1ccc2ccccc2c1)C(=O)O; Gd^T″ = GdDTPA-thiourea; Dap = NC[C@H](N)C(=O)O; AEEA = NCCOCCOCC(=O)O
A collection of binders and their measured % bound
Kindly answer with a numeric value in %, unit omitted.

Worked cases, % bound given:
>  <binder>
{Gd^T″}-GQ[2Nal]HCTTRFPHHYCLYG (disulfide 5-14) [Compound ID 872]

>  <recorded_value>
41

$$$$
>  <binder>
{Gd^T″}-GK([Gly-Gd^T″])WHCYT[Dap](Gd^T″)FPHHYCVY[Bip] (disulfide 5-14) [Compound ID 1006]

>  <recorded_value>
89

$$$$

Attention now turns to another entry.
Please look at this binder and report its % bound: {Gd^T″}-GK([Gly-Gd^T″])WHCYTYFPHHYCVYG-{AEEA-Gd^T″} (disulfide 5-14 (inferred)) [Compound ID 998] 71

meta.source: patent US20080044360A1
